B1: RIPK4 (parent)
chain: VIDLFDEQGLSALHLAAQGRHAQT

Variants of: B1
protocol-summary: protein stability index of a GFP-peptide fusion (GPS, HEK-293T) (PSI 1-6); higher = more stable;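 also: lentivirally expressed fusions sorted by FACS into six bins by GFP to DsRed ratio, PSI derived from sequencing read proportions per bin multiplied by bin number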
study-conditions: c terminus: a fixed tail appended

variant-annotation	protein stability index
H14K	2.8
S11R	2.03
G19Q	3.07
H21F	2.22
G9I	1.94
L10C	3.2
H14M	1.89
D6H	2.06
E7I	2.2
S11T	2.63
L4K	3.92
S11W	2.52
H21T	3.07
L10Y	2.75
V1R	3.41
L4E	4.29
H14Q	3.2
L4N	3.12
L4A	3.72
D6P	3.13
E7H	2.17
V1E	4.09
Q8N	2.86
L10F	2.83
D6G	1.77
L13K	3.61
G9C	2.19
A12L	1.98
I2C	3.4
Q8H	2.61
A17P	2.82
G9W	1.69
E7M	1.1
A17Y	2.49
L10W	2.23
V1H	3.45
D3I	2.71
I2E	4.42
L15H	3.3
A22V	2.42
L13Y	2.53
G9L	2.07
D6F	2.33
A16L	1.85
F5A	4.21
A16Q	2.77
